Experiment: Pharmacokinetics of ART in rats in absence and presence of CHR
Format: in vivo
Conditions: male; ART in rat plasma; ART 5 mg/kg intramuscular on day 3, 1 h after 3-day oral CHR (5, 10, 20 mg/kg for 1:1, 1:2, 1:4) or CMC-Na; n = 5, mean ± SD

{"compound": "C[C@@H]1CC[C@H]2[C@@H](C)C(=O)O[C@@H]3O[C@@]4(C)CC[C@@H]1[C@]32OO4 [ART, Artemisinin]", "Cmax (µg/mL)": 51.6}

---

System: CYP2C19
Experiment: in vitro
Settings: rat

{"compound": "COc1ccc2[nH]c([S+]([O-])Cc3ncc(C)c(OC)c3C)nc2c1 (stereo not shown) [OPZ, omeprazole, reference compound]", "unit_string": "µM", "Km at 15 min": 24.1}
